# Tm annotations
# PROTOCOL DESCRIPTION: melting temperature; melt of duplexes
# PARTICULARS: sodium 0.0675 M; strand 1 µM
Write it as a number; the unit °C goes unstated.

Consider the substance CGACGTGCAAAATGTGCTG+CAGCACATATTGCACGTCG ((((((((((.((((((((+)))))))).)))))))))) and give its measured Tm. 54.7

Others:
Consider the substance CGACGTGCCTGATGTGCTG+CAGCACATGCAGCACGTCG ((((((((...((((((((+))))))))...)))))))) and give its measured Tm. 50.4

Consider the substance CGACGTGCTCTATGTGCTG+CAGCACATCTGGCACGTCG ((((((((...((((((((+))))))))...)))))))) and give its measured Tm. 49.5

====

# PROTOCOL DESCRIPTION: melting temperature; melt of duplexes
# PARTICULARS: sodium 0.0675 M; strand 1 µM
PROPERTY MEASURED: Tm (°C)
Write it as a number; the unit °C goes unstated.

Consider the substance CGACGTGCGTCATGTGCTG+CAGCACATCTCGCACGTCG (((((((((..((((((((+))))))))..))))))))) and give its measured Tm. 52.4

Consider the substance CGACGTGCTAGATGTGCTG+CAGCACATGTTGCACGTCG ((((((((.(.((((((((+)))))))).).)))))))) and give its measured Tm. 52.2

Consider the substance CGACGTGCACAATGTGCTG+CAGCACATCAAGCACGTCG ((((((((...((((((((+))))))))...)))))))) and give its measured Tm. 46.2

Consider the substance CGACGTGCTGGATGTGCTG+CAGCACATATGGCACGTCG ((((((((...((((((((+))))))))...)))))))) and give its measured Tm. 52.7

Consider the substance CGACGTGCCTAATGTGCTG+CAGCACATTGTGCACGTCG ((((((((..(((((((((+)))))))))..)))))))) and give its measured Tm. 49

Others:
Consider the substance CGACGTGCGTCATGTGCTG+CAGCACATCTAGCACGTCG ((((((((...((((((((+))))))))...)))))))) and give its measured Tm. 51.5

Consider the substance CGACGTGCCCAATGTGCTG+CAGCACATAAAGCACGTCG ((((((((...((((((((+))))))))...)))))))) and give its measured Tm. 50.1

====

# PROTOCOL DESCRIPTION: melting temperature; melt of duplexes
# PARTICULARS: sodium 0.0675 M; strand 1 µM
# Tm annotations
Write it as a number; the unit °C goes unstated.

Consider the substance CGACGTGCTTCATGTGCTG+CAGCACATGACGCACGTCG ((((((((.((((((((((+)))))))))).)))))))) and give its measured Tm. 55.1

Consider the substance CGACGTGCTGGATGTGCTG+CAGCACATGGCGCACGTCG ((((((((...((((((((+))))))))...)))))))) and give its measured Tm. 49.6

Consider the substance CGACGTGCGAGATGTGCTG+CAGCACATAATGCACGTCG ((((((((...((((((((+))))))))...)))))))) and give its measured Tm. 52

Others:
Consider the substance CGACGTGCCTAATGTGCTG+CAGCACATCTTGCACGTCG ((((((((...((((((((+))))))))...)))))))) and give its measured Tm. 48

====

# PROTOCOL DESCRIPTION: melting temperature; melt of duplexes
# PARTICULARS: sodium 0.0675 M; strand 1 µM
# Tm annotations
Write it as a number; the unit °C goes unstated.

Solved entries (count: 2):
Consider the substance CGACGTGCTTCATGTGCTG+CAGCACATCGTGCACGTCG ((((((((...((((((((+))))))))...)))))))) and give its measured Tm. 43.2

Consider the substance CGACGTGCAACATGTGCTG+CAGCACATCAAGCACGTCG ((((((((...((((((((+))))))))...)))))))) and give its measured Tm. 47.1

Others:
Consider the substance CGACGTGCGGGATGTGCTG+CAGCACATTACGCACGTCG (((((((((..((((((((+))))))))..))))))))) and give its measured Tm. 58

Consider the substance CGACGTGCGCCATGTGCTG+CAGCACATAGCGCACGTCG ((((((((((.((((((((+)))))))).)))))))))) and give its measured Tm. 58.9

Consider the substance CGACGTGCATAATGTGCTG+CAGCACATTACGCACGTCG ((((((((.((((((((((+)))))))))).)))))))) and give its measured Tm. 54.4

Consider the substance CGACGTGCAAGATGTGCTG+CAGCACATATCGCACGTCG ((((((((.(.((((((((+)))))))).).)))))))) and give its measured Tm. 50.3

Consider the substance CGACGTGCGAAATGTGCTG+CAGCACATTCGGCACGTCG ((((((((..(((((((((+)))))))))..)))))))) and give its measured Tm. 53.7

====

# Tm annotations
# PROTOCOL DESCRIPTION: melting temperature; melt of duplexes
# PARTICULARS: sodium 0.0675 M; strand 1 µM
Write it as a number; the unit °C goes unstated.

Solved entries (count: 3):
Consider the substance CGACGTGCAGTATGTGCTG+CAGCACATGTAGCACGTCG ((((((((...((((((((+))))))))...)))))))) and give its measured Tm. 49.8

Consider the substance CGACGTGCTATATGTGCTG+CAGCACATGCGGCACGTCG ((((((((...((((((((+))))))))...)))))))) and give its measured Tm. 49.4

Consider the substance CGACGTGCAGAATGTGCTG+CAGCACATGCGGCACGTCG ((((((((.(.((((((((+)))))))).).)))))))) and give its measured Tm. 54.4

# input for lookup
Consider the substance CGACGTGCGGGATGTGCTG+CAGCACATATAGCACGTCG ((((((((...((((((((+))))))))...)))))))) and give its measured Tm. 52.8

====

# PROTOCOL DESCRIPTION: melting temperature; melt of duplexes
# PARTICULARS: sodium 0.0675 M; strand 1 µM
PROPERTY MEASURED: Tm
Please append the unit to your numeric answer.

Solved entries (count: 3):
Consider the substance CGACGTGCACCATGTGCTG+CAGCACATCCTGCACGTCG (((((((((..((((((((+))))))))..))))))))) and give its measured Tm. 44.7 °C

Consider the substance CGACGTGCACCATGTGCTG+CAGCACATTTGGCACGTCG ((((((((...((((((((+))))))))...)))))))) and give its measured Tm. 44.6 °C

Consider the substance CGACGTGCCGAATGTGCTG+CAGCACATTGAGCACGTCG ((((((((..(((((((((+)))))))))..)))))))) and give its measured Tm. 53.3 °C

Others:
Consider the substance CGACGTGCGTAATGTGCTG+CAGCACATATAGCACGTCG ((((((((...((((((((+))))))))...)))))))) and give its measured Tm. 54.5 °C

Consider the substance CGACGTGCCTAATGTGCTG+CAGCACATTTGGCACGTCG (((((((((.(((((((((+))))))))).))))))))) and give its measured Tm. 58.7 °C

Consider the substance CGACGTGCCTTATGTGCTG+CAGCACATCATGCACGTCG ((((((((.(.((((((((+)))))))).).)))))))) and give its measured Tm. 47.7 °C

Consider the substance CGACGTGCGTGATGTGCTG+CAGCACATTTTGCACGTCG ((((((((...((((((((+))))))))...)))))))) and give its measured Tm. 50.7 °C

====

# PROTOCOL DESCRIPTION: melting temperature; melt of duplexes
# PARTICULARS: sodium 0.0675 M; strand 1 µM
PROPERTY MEASURED: Tm (°C)
Write it as a number; the unit °C goes unstated.

Consider the substance CGACGTGCCATATGTGCTG+CAGCACATCTCGCACGTCG ((((((((.(.((((((((+)))))))).).)))))))) and give its measured Tm. 47.7

Consider the substance CGACGTGCCAAATGTGCTG+CAGCACATGGAGCACGTCG ((((((((...((((((((+))))))))...)))))))) and give its measured Tm. 52.4

Consider the substance CGACGTGCCTAATGTGCTG+CAGCACATGCGGCACGTCG (((((((((..((((((((+))))))))..))))))))) and give its measured Tm. 53.3

Consider the substance CGACGTGCGTCATGTGCTG+CAGCACATGGCGCACGTCG (((((((((.(((((((((+))))))))).))))))))) and give its measured Tm. 63.5

# input for lookup
Consider the substance CGACGTGCATAATGTGCTG+CAGCACATGCTGCACGTCG (((((((((..((((((((+))))))))..))))))))) and give its measured Tm. 50
